Form field: activity change, negative = inhibition (one value per entry).
- procedure-summary: NFAT Signaling Pathway (AID 444);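 note: carbachol stimulus at about its EC50 of 1 µM final; % is set by controls: 0 for no effect and ±100 for the full control effect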
- measurement-conditions: Jurkat NFAT-bla M1, carbachol, beta-lactamase ratio, 5 h; at 7.69 µM (top of the series) unless noted
Results filed as inconclusive are left out. Calls of active or inactive are those of the source. Calls come from the whole dose curve; as a rule, active = well fitted curve in either direction with a large enough effect (not every such curve was filed as active); inconclusive = small, poorly fitted or top-dose-only effect, or another doubt; inactive = flat fitted curve, though single readings scatter. Residues, ends and D or L forms follow the SMILES beside them.

compound	activity change, negative = inhibition
C[C@@]12CC(=O)[C@@H]3[C@@H](CCC4=CC(=O)CC[C@]43C)[C@@H]1CC=C2CC(=O)O	23.5% (inactive)
CSc1nc(C)cc(Nc2ccc(O)c(CN3CCOCC3)c2)n1	12.3% (inactive)
Cc1cn([C@H]2C=C[C@H](CO)O2)c(=O)[nH]c1=O	4.45% [at 38 µM] (inactive)
NCC(=O)N[C@H](CO)C(=O)O (HELM PEPTIDE1{G.[dS]}$$$$V2.0)	-7.28% (inactive)
N[C@@H](CSCc1ccccc1)C(=O)O	3.49% (inactive)
COc1cc(OC)cc([C@H](CNc2ncnc3c2ncn3[C@@H]2O[C@@H](CO)[C@H](O)[C@@H]2O)c2ccccc2C)c1	19.3% [at 38 µM] (inactive)
Cn1c(=O)c2[nH]c(CCS)nc2n(C)c1=O	-18% (inactive)
Cc1cc(Cc2cc(C)c(N)cc2N)c(N)cc1N	-1.81% (inactive)
CN(C)c1ccc(/C=N\NC(=O)c2cnc3ccccc3c2)cc1	1.4% (inactive)
COc1cc([C@H](O)C(=O)O)ccc1O	-1.26% [at 38 µM] (inactive)
Cc1[nH]c2c(C)ccc(C)c2c1CC(=O)O	10.6% (inactive)
CC(=O)O[C@H]1CC[C@@]2(C)[C@@H](CC[C@H]3[C@H]2CC(=O)[C@@]2(C)[C@@H]3C[C@H]3CC(C)=CC(=O)[C@H]32)C1	22% (inactive)
Cc1c2cnccc2c(C)c2c1c1ccccc1n2CCOC(=O)c1ccccc1	-4.41% (inactive)
Nc1cccc2cc(S(=O)(=O)Nc3ccc(C(=O)O)cc3)ccc12	12.7% (inactive)
OCCCSCCO	7.44% (inactive)
Nc1ccccc1N=Nc1c(S(=O)(=O)O)cc2cc(S(=O)(=O)O)cc(O)c2c1O	-1.89% (inactive)
N=C(N)[C@H](N=Nc1ccccc1)C(N)=O	1.62% (inactive)
C[C@@H]1C(=O)N(C)C(=O)c2nc[nH]c21	-19.2% [at 38 µM] (inactive)
CC(C)Cn1cnc2c(SCc3ccccn3)nc(N)nc21	8.93% (inactive)
NC1=N[C@H](c2ccc(Cl)cc2)N(c2ccc(S(N)(=O)=O)cc2)C(N)=N1	-10.1% (inactive)
COc1ccccc1-c1nc(NCc2ccccc2)c2ccccc2n1	-19.4% (inactive)
NC1=C2NC=N[C@@H]2N(C/C=C\c2ccccc2)C=N1	4.81% (inactive)
N#CC(=NCCO)C1=C(O)c2ccccc2C1=O	17.6% (inactive)
O=C(O)c1c(-c2c3ccc(=O)cc-3oc3cc(O)ccc23)cc2ccccc2c1-c1ccccc1	2.16% (inactive)
O=C(O)C[n+]1ccccc1	-24% (inactive)
CC1(C)[C@@H]2CC[C@@](C)(C2)[C@H]1OC(=O)c1ccccc1C(=O)O	4.7% (inactive)
C[Si](C)(c1ccc(C(=O)O)cc1)c1ccc(C(=O)O)cc1	-2.05% (inactive)
O=C1c2ccccc2C(=O)N1C[C@]1(C(=O)O)NCCS1(=O)=O	7.39% (inactive)
C[C@@H](Cc1ccccc1)Nc1ncnc2c1ncn2[C@@H]1O[C@@H](CO)[C@H](O)[C@@H]1O	-0.283% [at 38 µM] (inactive)
CC(C)(C)CC(C)(C)c1cc(O)c(O)c(CN2CCCCC2)c1	-28.7% (inactive)
O=C(c1nc2ccc([N+](=O)[O-])cc2[nH]c1=O)[C@@H](O)c1ccc2c(c1)OCO2	2.9% (inactive)
Nc1nc(N)nc(CCCc2nc(N)nc(N)n2)n1	6.45% (inactive)
NNC(=O)CCSc1ccccc1	10.9% (inactive)
CC(C)[C@H]1C(=O)C(C(N)=O)=C(O)[C@]2(O)C(=O)C3=C(O)c4c(O)ccc(N(C)C)c4C[C@H]3C[C@@H]12	8.64% [at 38 µM] (inactive)
Nc1ccc(-c2ccc(Nc3cc(S(=O)(=O)O)c(N)c4c3C(=O)c3ccccc3C4=O)cc2)c(S(=O)(=O)O)c1	-2.33% (inactive)
CN1CCc2cc(Cl)c(O)cc2[C@H](c2ccccc2)C1	-3.81% [at 38 µM] (inactive)
CC(=O)Nc1ccccc1C=C1c2ccccc2-c2ccccc21	18% (inactive)
Nc1c(S(=O)(=O)O)cc(Nc2cccc(S(N)(=O)=O)c2)c2c1C(=O)c1ccccc1C2=O	-26.6% (inactive)
C/C(=N/O)[C@@H]1C[C@H](CC(=O)O)C1(C)C	9.94% (inactive)
S=c1nc[nH]c2c1ncn2Cc1ccco1	-0.242% (inactive)
Cc1cc(C2(c3cc(C)c(O)c(C(=O)O)c3)OS(=O)(=O)c3ccccc32)cc(C(=O)O)c1O	-1.56% (inactive)
O=C(O)C(Cc1cccs1)C(=O)O	8.62% (inactive)
CSc1nc(N)c2ncn([C@@H]3O[C@@H](COP(=O)(O)OP(=O)(O)OP(=O)(O)O)[C@@H](O)[C@H]3O)c2n1	0.479% [at 38 µM] (inactive)
Nc1ccccc1SCc1csc(-c2ccc(Cl)cc2)n1	-25.4% (inactive)
